System: HeLa
Experiment: Antiproliferative activity against human HeLa cells after 96 hrs
Assay type: functional, cell-based
measure_name: IC50 (µg/mL)

Record excerpt, results attached:
{"item_smiles": "CNC(=O)NC[C@H]1O[C@@H](n2cnc3c(NC(=O)Nc4ccccc4)ncnc32)[C@H](O[Si](C)(C)C(C)(C)C)[C@@H]1O[Si](C)(C)C(C)(C)C", "u": "µg/mL", "IC50": 3.2}
{"item_smiles": "CNC(=O)OC[C@H]1O[C@@H](n2cnc3c(NC(=O)Nc4ccc(I)cc4)ncnc32)[C@H](O[Si](C)(C)C(C)(C)C)[C@@H]1O[Si](C)(C)C(C)(C)C", "u": "µg/mL", "IC50": 143}
{"item_smiles": "CNC(=O)NC[C@H]1O[C@@H](n2cnc3c(NC(=O)Nc4cccc(I)c4)ncnc32)[C@H](O[Si](C)(C)C(C)(C)C)[C@@H]1O[Si](C)(C)C(C)(C)C", "u": "µg/mL", "IC50": 21}

[a] CCCNC(=O)Nc1ncnc2c1ncn2[C@@H]1O[C@H](CNC(=O)NC)[C@@H](O[Si](C)(C)C(C)(C)C)[C@H]1O[Si](C)(C)C(C)(C)C
[b] CNC(=O)OC[C@H]1O[C@@H](n2cnc3c(NC(=O)Nc4ccc([N+](=O)[O-])cc4)ncnc32)[C@H](O[Si](C)(C)C(C)(C)C)[C@@H]1O[Si](C)(C)C(C)(C)C
Just curious, which one has the larger IC50 reading, a or b ? Provide the label of your selected option as the answer. a
